experiment: Viscosity responsiveness: fluorescence emission spectra of probes in glycerol and methanol; assay type: physicochemical; conditions: excited at maximum excitation wavelength of each probe
Label scheme for Emission wavelength: lower than 600 nm is Criterion not met, 600 nm and above is Criterion met.

Answered examples (3):
record_smiles=CN(CCOC(=O)NCc1ccc(COc2nc(N)nc3[nH]cnc23)cc1)c1ccc2nc(/C=C(\C#N)C(=O)O)sc2c1 cat="Criterion met"
record_smiles=CC1=CC(C)(C)N(CCOC(=O)NCc2ccc(COc3nc(N)nc4[nH]cnc34)cc2)c2ccc(/C=C(\C#N)C(=O)O)cc21 cat="Criterion not met"
record_smiles=N#C/C(=C\c1ccc2c(c1)SCCN2CCOC(=O)NCc1ccc(COc2nc(N)nc3[nH]cnc23)cc1)c1nc2ccccc2o1 cat="Criterion not met"

# next compound below
INPUT: Quick check: does "CN(CCOC(=O)NCc1ccc(COc2nc(N)nc3[nH]cnc23)cc1)c1cc2c(s1)-c1sc(/C=C(/C#N)c3nc4ccccc4o3)cc1[Si]2(C)C" have Emission wavelength greater than or equal to 600 nm?
OUTPUT: Criterion met

###

Form field: Fluorescence activation multiple (one value per entry).
target: SNAP protein tags (Homo sapiens, UniProt P16455, A127T/A154D/C150Q/C62A/E30R/G131K/G132T/G153L/K125A/K32I/L33F/M134L/N157G/Q115S/Q116H/R128A/R135S/S151G/S152D/S159E); experiment: Fluorescence activation of probe after incubation with corresponding protein tag (SNAP); type: biochemical; conditions: probe 5 μM, protein tag 10 μM, 37° C., 1 hr
Answer with a bare number; do not write a unit.

Here's what some known entries look like.
molecule="CN(CCOC(=O)NCc1ccc(COc2cc(Cl)nc(N)n2)cc1)c1cc2sc(/C=C(\\C#N)c3nc4ccccc4s3)cc2s1 [probe 26]" result_type="Fluorescence activation multiple" reported_measurement=910
molecule="CN(C)c1ccc2nc(/C=C(\\C#N)C(=O)NCc3ccc(COc4nc(N)nc5[nH]cnc45)cc3)sc2c1 [Reference Probe 113, reference compound]" result_type="Fluorescence activation multiple" reported_measurement=36
molecule="CN(CCOC(=O)NCc1ccc(COc2nc(N)nc3[nH]cnc23)cc1)c1ccc(-c2ccc(/C=C(\\C#N)C(=O)OC(C)(C)C)s2)s1 [probe 77]" result_type="Fluorescence activation multiple" reported_measurement=268
molecule="CN(CCOC(=O)NCc1ccc(COc2cc(Cl)nc(N)n2)cc1)c1ccc(C2=C(C#N)C(=C(C#N)C#N)OC2(C)C)cc1 [probe 19]" result_type="Fluorescence activation multiple" reported_measurement=361

INPUT: Read off the recorded Fluorescence activation multiple for CN(CCOC(=O)NCc1ccc(COc2nc(N)nc3[nH]cnc23)cc1)c1ccc(/C=C(\C#N)c2nc3ccccc3s2)cc1 [probe 3]
OUTPUT: 139

INPUT: Read off the recorded Fluorescence activation multiple for CN(CCOC(=O)NCc1ccc(COc2nc(N)nc3[nH]cnc23)cc1)c1ccc(/C=C(\C#N)C(=O)OC(C)(C)C)cc1 [probe 1]
OUTPUT: 360

INPUT: Read off the recorded Fluorescence activation multiple for CN(CCOC(=O)NCc1ccc(COc2nc(N)nc3[nH]cnc23)cc1)c1ccc(-c2ccc(/C=C(\C#N)C(=O)OC(C)(C)C)s2)cc1 [probe 66]
OUTPUT: 512

INPUT: Read off the recorded Fluorescence activation multiple for CC1=CC(C)(C)N(CCOC(=O)NCc2ccc(COc3nc(N)nc4[nH]cnc34)cc2)c2ccc(/C=C(\C#N)c3nc4ccccc4o3)cc21 [probe 88]
OUTPUT: 621

INPUT: Read off the recorded Fluorescence activation multiple for CN(CCOC(=O)NCc1ccc(COc2nc(N)nc3[nH]cnc23)cc1)c1cc2sc3cc(/C=C(\C#N)c4nc5ccccc5s4)sc3c2s1 [probe 62]
OUTPUT: 592

INPUT: Read off the recorded Fluorescence activation multiple for CN(CCOC(=O)NCc1ccc(COc2nc(N)nc3[nH]cnc23)cc1)c1cc2sc(/C=C(\C#N)c3nc4ccccc4s3)cc2s1 [probe 23]
OUTPUT: 712

INPUT: Read off the recorded Fluorescence activation multiple for N#C/C(=C\c1ccc2c(c1)SCCN2CCOC(=O)NCc1ccc(COc2nc(N)nc3[nH]cnc23)cc1)c1nc2ccccc2o1 [probe 85]
OUTPUT: 391

INPUT: Read off the recorded Fluorescence activation multiple for CN(CCOC(=O)NCc1ccc(COc2nc(N)nc3[nH]cnc23)cc1)c1ccc(C#C/C=C(\C#N)c2nc3ccccc3s2)cc1 [probe 59]
OUTPUT: 498

INPUT: Read off the recorded Fluorescence activation multiple for N#C/C(=C\c1ccc2c(c1)SCCN2CCOC(=O)NCc1ccc(COc2nc(N)nc3[nH]cnc23)cc1)C(=O)O [probe 103]
OUTPUT: 651

###

Form field: Fluorescence activation multiple (one value per entry).
Target: SNAP protein tags (Homo sapiens, UniProt P16455, A127T/A154D/C150Q/C62A/E30R/G131K/G132T/G153L/K125A/K32I/L33F/M134L/N157G/Q115S/Q116H/R128A/R135S/S151G/S152D/S159E)
Sequence (P16455 1-182 E30R/K32I/L33F/C62A/Q115S/Q116H/K125A/A127T/R128A/G131K/G132T/M134L/R135S/C150Q/S151G/S152D/G153L/A154D/N157G/S159E): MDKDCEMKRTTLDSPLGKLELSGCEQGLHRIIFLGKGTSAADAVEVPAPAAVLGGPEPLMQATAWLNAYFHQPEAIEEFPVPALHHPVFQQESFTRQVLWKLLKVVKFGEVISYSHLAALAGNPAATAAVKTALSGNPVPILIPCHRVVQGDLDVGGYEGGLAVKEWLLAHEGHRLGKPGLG
Experiment: Fluorescence activation of probe after incubation with corresponding protein tag (SNAP)
Assay type: biochemical
Details: probe 5 μM, protein tag 10 μM, 37° C., 1 hr

molecule="CN(CCO)c1ccc(/C=C(\\C#N)C(=O)NCc2ccc(COc3nc(N)nc4[nH]cnc34)cc2)cc1 [Reference Probe 102, reference compound]" result_type="Fluorescence activation multiple" reported_measurement=31
molecule="CN(CCOC(=O)NCc1ccc(COc2cc(Cl)nc(N)n2)cc1)c1ccc(/C=C(\\C#N)C(=O)OC(C)(C)C)cc1 [probe 4]" result_type="Fluorescence activation multiple" reported_measurement=490
molecule="CN1C(=O)/C(=C/c2ccc(N(C)CCOC(=O)NCc3ccc(COc4cc(Cl)nc(N)n4)cc3)cc2)N=C1/C=C/c1ccccc1 [probe 16]" result_type="Fluorescence activation multiple" reported_measurement=359
molecule="CC(C)(C)OC(=O)/C(C#N)=C/c1cc2ccc(N(CCO)CCOC(=O)NCc3ccc(COc4nc(N)nc5[nH]cnc45)cc3)cc2s1 [probe 37]" result_type="Fluorescence activation multiple" reported_measurement=469

INPUT: Read off the recorded Fluorescence activation multiple for CN(CCOC(=O)NCc1ccc(COc2nc(N)nc3[nH]cnc23)cc1)c1ccc(/C=C(\C#N)c2nc3ccccc3o2)cc1 [probe 2]
OUTPUT: 146

INPUT: Read off the recorded Fluorescence activation multiple for CN(CCOC(=O)NCc1ccc(COc2nc(N)nc3[nH]cnc23)cc1)c1ccc2nc(/C=C(\C#N)C(=O)O)sc2c1 [probe 114]
OUTPUT: 328

###

Form field: Fluorescence ratio in glycerol to methanol (one value per entry).
assay: Viscosity responsiveness: fluorescence emission spectra of probes in glycerol and methanol; format: physicochemical; details: probe 1×10^−5 M
Answer with a bare number; do not write a unit.

Here's what some known entries look like.
molecule=COCCNC(=O)/C(C#N)=C/c1ccc(-c2ccc(N(C)CCOC(=O)NCc3ccc(COc4cc(Cl)nc(N)n4)cc3)cc2)s1 reported_measurement=381
molecule=N#C/C(=C\c1ccc2c(c1)SCCN2CCOC(=O)NCc1ccc(COc2nc(N)nc3[nH]cnc23)cc1)c1nc2ccccc2s1 reported_measurement=214
molecule=CN(CCOC(=O)NCc1ccc(COc2nc(N)nc3[nH]cnc23)cc1)c1ccc2cc(/C=C(\C#N)C(=O)O)sc2c1 reported_measurement=621
molecule=COCCNC(=O)/C(C#N)=C/c1cc2cc3sc(N(C)CCOC(=O)NCc4ccc(COc5nc(N)nc6[nH]cnc56)cc4)cc3cc2s1 reported_measurement=121

INPUT: Read off the recorded Fluorescence ratio in glycerol to methanol for "CN(CCOC(=O)NCc1ccc(COc2nc(N)nc3[nH]cnc23)cc1)c1ccc2c(c1)sc1cc(C=C(C#N)C#N)sc12"
OUTPUT: 632

INPUT: Read off the recorded Fluorescence ratio in glycerol to methanol for "COCCNC(=O)/C(C#N)=C/c1cc2cc3sc(N(C)CCOC(=O)NCc4ccc(COc5nccc(N)n5)cc4)cc3cc2s1"
OUTPUT: 268

INPUT: Read off the recorded Fluorescence ratio in glycerol to methanol for "CN(CCOC(=O)NCc1ccc(COc2nccc(N)n2)cc1)c1cc2c(s1)-c1sc(/C=C(/C#N)c3nc4ccccc4o3)cc1C2(C)C"
OUTPUT: 125

INPUT: Read off the recorded Fluorescence ratio in glycerol to methanol for "CN(CCOC(=O)NCc1ccc(COc2nc(N)nc3[nH]cnc23)cc1)c1cc2c(s1)-c1sc(/C=C(/C#N)C(=O)O)cc1C2(C)C"
OUTPUT: 182

INPUT: Read off the recorded Fluorescence ratio in glycerol to methanol for "CN(CCOC(=O)NCc1ccc(COc2nccc(N)n2)cc1)c1cc2c(s1)-c1sc(/C=C(/C#N)C(=O)OC(C)(C)C)cc1C2(C)C"
OUTPUT: 431

INPUT: Read off the recorded Fluorescence ratio in glycerol to methanol for "CN(CCOC(=O)NCc1ccc(COc2nccc(N)n2)cc1)c1cc2sc(/C=C(\C#N)c3nc4ccccc4o3)cc2s1"
OUTPUT: 1132

INPUT: Read off the recorded Fluorescence ratio in glycerol to methanol for "CN(CCOC(=O)NCc1ccc(COc2nc(N)nc3[nH]cnc23)cc1)c1ccc2nc(/C=C(\C#N)c3nc4ccccc4s3)oc2c1"
OUTPUT: 235

INPUT: Read off the recorded Fluorescence ratio in glycerol to methanol for "CN(CCOC(=O)NCc1ccc(COc2nc(N)nc3[nH]cnc23)cc1)c1ccc2nc(/C=C(\C#N)C(=O)OC(C)(C)C)oc2c1"
OUTPUT: 1028

INPUT: Read off the recorded Fluorescence ratio in glycerol to methanol for "CN(CCOC(=O)NCc1ccc(COc2cc(Cl)nc(N)n2)cc1)c1ccc(/C=C(\C#N)C(=O)OC(C)(C)C)cc1"
OUTPUT: 562

INPUT: Read off the recorded Fluorescence ratio in glycerol to methanol for "CN(CCOC(=O)NCc1ccc(COc2nccc(N)n2)cc1)c1ccc2nc(/C=C(\C#N)c3nc4ccccc4s3)oc2c1"
OUTPUT: 180

INPUT: Read off the recorded Fluorescence ratio in glycerol to methanol for "CN(CCOC(=O)NCc1ccc(COc2nc(N)nc3[nH]cnc23)cc1)c1ccc(-c2ccc(/C=C(\C#N)c3nc4ccccc4s3)s2)s1"
OUTPUT: 298

INPUT: Read off the recorded Fluorescence ratio in glycerol to methanol for "CN1C(=O)/C(=C/c2ccc(N(C)CCOC(=O)NCc3ccc(COc4cc(Cl)nc(N)n4)cc3)cc2)N=C1/C=C/c1ccccc1"
OUTPUT: 311

INPUT: Read off the recorded Fluorescence ratio in glycerol to methanol for "CC1=N/C(=C/c2cc3ccc(N(C)CCOC(=O)NCc4ccc(COc5nc(N)nc6[nH]cnc56)cc4)cc3s2)C(=O)N1C"
OUTPUT: 101

INPUT: Read off the recorded Fluorescence ratio in glycerol to methanol for "CN(CCOC(=O)NCc1ccc(COc2nc(N)nc3[nH]cnc23)cc1)c1cc2sc(/C=C(\C#N)c3nc4ccccc4s3)cc2s1"
OUTPUT: 1235

INPUT: Read off the recorded Fluorescence ratio in glycerol to methanol for CN(C)c1ccc(/C=C(\C#N)C(=O)NCc2ccc(COc3nc(N)nc4[nH]cnc34)cc2)cc1 [Reference Probe 100, reference compound]
OUTPUT: 213

INPUT: Read off the recorded Fluorescence ratio in glycerol to methanol for "CN(CCOC(=O)NCc1ccc(COc2nc(N)nc3[nH]cnc23)cc1)c1cc2c(s1)-c1sc(/C=C(/C#N)C(=O)OC(C)(C)C)cc1[Si]2(C)C"
OUTPUT: 297

INPUT: Read off the recorded Fluorescence ratio in glycerol to methanol for "CN(CCOC(=O)NCc1ccc(COc2nc(N)nc3[nH]cnc23)cc1)c1cc2c(s1)-c1sc(/C=C(/C#N)c3nc4ccccc4o3)cc1[Si]2(C)C"
OUTPUT: 105

INPUT: Read off the recorded Fluorescence ratio in glycerol to methanol for "CN(CCOC(=O)NCc1ccc(COc2nc(N)nc3[nH]cnc23)cc1)c1ccc(/C=C(\C#N)c2nc3ccccc3o2)cc1"
OUTPUT: 410

INPUT: Read off the recorded Fluorescence ratio in glycerol to methanol for CN(CCO)c1cc2c(s1)-c1sc(/C=C(/C#N)C(=O)NCc3ccc(COc4nc(N)nc5[nH]cnc45)cc3)cc1C2(C)C [Reference Probe 99, reference compound]
OUTPUT: 129

INPUT: Read off the recorded Fluorescence ratio in glycerol to methanol for CN(C)c1ccc2nc(/C=C(\C#N)C(=O)NCc3ccc(COc4nc(N)nc5[nH]cnc45)cc3)sc2c1 [Reference Probe 113, reference compound]
OUTPUT: 129

INPUT: Read off the recorded Fluorescence ratio in glycerol to methanol for CN(CCOC(=O)NCc1ccc(COc2nc(N)nc3[nH]cnc23)cc1)c1ccc2cc(/C=C(\C#N)C(=O)OC(C)(C)C)sc2c1 [probe 40]
OUTPUT: 759

The reported numbers originate from patent US11209437B2.
